Values compiled from ChEMBL document CHEMBL1152367.

# TESTED TARGET: Cannabinoid receptor 1 (Homo sapiens)
# Sequence (P21554 whole entry): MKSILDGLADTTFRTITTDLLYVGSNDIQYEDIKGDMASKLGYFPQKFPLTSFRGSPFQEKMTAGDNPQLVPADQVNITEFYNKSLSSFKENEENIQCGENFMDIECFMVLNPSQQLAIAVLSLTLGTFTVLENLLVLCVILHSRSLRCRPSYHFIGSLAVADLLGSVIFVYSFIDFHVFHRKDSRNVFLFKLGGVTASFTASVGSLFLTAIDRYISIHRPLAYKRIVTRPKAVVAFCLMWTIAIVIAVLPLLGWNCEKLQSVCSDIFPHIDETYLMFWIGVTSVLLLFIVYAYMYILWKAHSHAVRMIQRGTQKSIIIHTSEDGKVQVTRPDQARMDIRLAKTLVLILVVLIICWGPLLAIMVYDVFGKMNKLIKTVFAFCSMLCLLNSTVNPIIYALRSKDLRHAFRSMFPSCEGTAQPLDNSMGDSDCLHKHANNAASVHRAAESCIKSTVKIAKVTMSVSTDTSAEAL
# ASSAY INFO: Inverse agonist activity at human CB1 receptor by [35S]GTPgammaS incorporation assay
REPORTED ENDPOINT: pEC50
Hey, just a heads up that pEC50 is the negative log base 10 of the concentration in molar.

Example entries begin here.
| COMPOUND | VALUE REPORTED |
| --- | --- |
| Cc1ccc(C2c3cccn3-c3ccccc3N2C(=O)CN(C(=O)C2CCCC2)C2CC2)cc1 (stereo unspecified) | 5.96 |
| O=C(Nc1ccccc1Oc1ccccc1)c1ccc(S(=O)(=O)N2CCc3ccccc32)cc1 | 6.70 |
| COc1ccccc1NC(=O)C(C)Sc1nc(-c2ccc(C)cc2)nc2c1COC(C)(C)C2 (stereo unspecified) | 5.92 |
| CC(C)N(CC(=O)N1c2ccccc2-n2cccc2C1c1ccc(F)cc1)C(=O)CC(C)(C)C (stereo unspecified) | 5.96 |
| CCOC(=O)N1CCN(C(=O)c2cc(-c3ccccc3Cl)nn2-c2ccc(C)cc2C)CC1 | 6.70 |
| COc1ccc(C2c3cccn3-c3ccccc3N2C(=O)CN(C(=O)NC(C)(C)C)C(C)C)cc1 (stereo unspecified) | 5.82 |
| CCN(Cc1ccccc1)C(=O)c1oc2ccc(S(=O)(=O)N3CC(C)CC(C)C3)cc2c1C (stereo unspecified) | 6.52 |
| COc1cccc(N2C(C(C)=O)=NN(c3ccc(Cl)cc3)C2c2ccc(N3CCOCC3)cc2)c1 (stereo unspecified) | 6.22 |
| CC(C)CN(CC(=O)N1CCc2sccc2C1c1ccc(F)cc1)C(=O)c1ccco1 (stereo unspecified) | 5.36 |
| Cc1cc(C)c(OCC(=O)Nc2sc3c(c2C(=O)NC2CCS(=O)(=O)C2)CCCC3)c(C)c1 (stereo unspecified) | 6.40 |

INPUT: So what's the measured pEC50 for this one? CC1CC(C)CN(S(=O)(=O)c2ccc(F)c(C(=O)NC(c3ccccc3)c3ccccc3)c2)C1 (stereo unspecified)
OUTPUT: 6.30
